- assay.target: Hydroxycarboxylic acid receptor 1 (Homo sapiens, UniProt Q9BXC0)
- Sequence (Q9BXC0 whole entry): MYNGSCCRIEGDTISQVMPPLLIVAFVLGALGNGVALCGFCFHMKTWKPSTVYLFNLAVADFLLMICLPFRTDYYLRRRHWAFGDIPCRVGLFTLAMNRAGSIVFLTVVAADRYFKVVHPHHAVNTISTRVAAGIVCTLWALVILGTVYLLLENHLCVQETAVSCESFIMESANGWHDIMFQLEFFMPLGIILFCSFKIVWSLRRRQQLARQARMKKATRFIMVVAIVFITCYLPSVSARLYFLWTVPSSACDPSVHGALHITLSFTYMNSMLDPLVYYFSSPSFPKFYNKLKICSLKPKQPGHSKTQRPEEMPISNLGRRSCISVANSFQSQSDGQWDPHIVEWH
- experiment.notes: Agonist activity at HCA1 (unknown origin)
measured.metric: EC50

-- ask Record request: EC50 value, item CC(O)C(=O)O (stereo not given) [LACTIC ACID]
-- reply 1000 µM

-- ask What does the data say about its EC50? Entry: CC1CCC(C(=O)Nc2nc(-c3cccs3)c(CC(=O)N3CCN(C)CC3)s2)CC1 (stereo not given)
-- reply ~0.05 µM

-- ask What does the record list as EC50 for `O=C(O)c1cc(O)cc(Cl)c1` ?
-- reply ~16 µM

-- ask If you can, please state the reported EC50 value of O=C(O)c1cc(O)cc(O)c1 [3,5-DIHYDROXYBENZOIC ACID] .
-- reply ~150 µM

-- ask // returns reported EC50 for input O=C(O)c1cccc(O)c1 [3-HYDROXYBENZOIC ACID]
-- reply ~184 µM
